molecular target: full-length hepatitis C viral protein NS3•4A (Hepatitis C virus genotype 1a, UniProt P27958); construct: hexa-histidine (N); made in house; host or cells: Sf9 insect cells (baculovirus, pVL1392); test: biochemical; design: species or system HCV sub-type strain 1a; conditions: Enzyme Assay 2 (HCV NS3 Peptide Cleavage Assay) activity, apparent Ki class
pKi: −log10 of the molar value.
In this section we review reported pKi values for a set of molecules.
RECORDED ENDPOINT: pKi

INSERT INTO assay_data (molecule, measurement) VALUES
  ('CCC[C@H](NC(=O)[C@@H]1C[C@]2(CC(c3cc(Cl)ccc3OC)=NO2)CN1C(=O)[C@@H](NC(=O)CC1CCCCCC1)C(C)(C)C)C(=O)C(=O)NC1CC1', '6.30 to 7.00'),
  ('CCC[C@H](NC(=O)[C@@H]1C[C@]2(CC(c3cc(Cl)c4c(c3)CCO4)=NO2)CN1C(=O)[C@@H](NC(=O)CC1CCCCC1)C(C)(C)C)C(=O)C(=O)NC1CC1', '> 7.00'),
  ('CCC[C@H](NC(=O)[C@@H]1C[C@]2(CC(c3cccc(Cl)c3)=NO2)CN1C(=O)[C@@H](NC(=O)CC1CCCCC1)C(C)(C)C)C(=O)C(=O)NC(C)Cc1c[nH]c2ccc(C(C)=O)cc12 (stereo partly drawn)', '< 6.30');

====

Parameter: Ki. Scope: all listed entries.
biological target: full-length hepatitis C viral protein NS3•4A (Hepatitis C virus genotype 1a); construct: hexa-histidine (N); made in house; host or cells: Sf9 insect cells (baculovirus, pVL1392); test: biochemical; parameters: species or system HCV sub-type strain 1a; details: Enzyme Assay 2 (HCV NS3 Peptide Cleavage Assay) activity, apparent Ki class
RECORDED ENDPOINT: Ki

INSERT INTO measurements (smiles_entry, recorded_endpoint, measurement) VALUES
  ('CCC[C@H](NC(=O)[C@@H]1C[C@]2(CC(c3csc(Cl)c3)=NO2)CN1C(=O)[C@@H](NC(=O)CC1CCCCC1)C(C)(C)C)C(=O)C(=O)NC1CC1', 'Ki', '100 to 500 nM'),
  ('CCC[C@H](NC(=O)[C@@H]1C[C@]2(CC(c3cc(Cl)ccn3)=NO2)CN1C(=O)[C@@H](NC(=O)OC1CCCC1)C(C)(C)C)C(=O)C(=O)NC1CC1', 'Ki', '< 100 nM'),
  ('COc1cc(C)c(C2=NO[C@]3(C2)C[C@@H](C(=O)N[C@@H](CC2CC2)C(=O)C(=O)NC2CC2)N(C(=O)[C@@H](NC(=O)CC2CCCCC2)C(C)(C)C)C3)cc1Cl', 'Ki', '100 to 500 nM'),
  ('CCC[C@H](NC(=O)[C@@H]1C[C@]2(CC(c3cccc(Cl)c3)=NO2)CN1C(=O)[C@@H](NC(=O)CC1CCCCC1)C(C)(C)C)C(=O)C(=O)NC1Cc2ccccc2C1', 'Ki', '> 500 nM'),
  ('CCC[C@H](NC(=O)[C@@H]1C[C@]2(CC(c3cccc(Cl)c3)=NO2)CN1C(=O)[C@@H](NC(=O)CC1CCCCC1)C(C)(C)C)C(=O)C(=O)N[C@@H](C)c1cccc(OC)c1', 'Ki', '100 to 500 nM'),
  ('CCC[C@H](NC(=O)[C@@H]1C[C@]2(CC(c3cccc(Cl)c3)=NO2)CN1C(=O)[C@@H](NC(=O)CC1CCCCC1)C(C)(C)C)C(=O)C(=O)NCc1nc2ccccc2[nH]1', 'Ki', '100 to 500 nM'),
  ('C=CCOC(=O)N[C@H](C(=O)N1C[C@@]2(CC(c3cccc(Cl)c3)=NO2)C[C@H]1C(=O)N[C@]1(C(=O)O)C[C@H]1C=C)C(C)(C)C', 'Ki', '> 500 nM'),
  ('CCC[C@H](NC(=O)[C@@H]1C[C@]2(CC(c3cccc(Cl)c3)=NO2)CN1C(=O)[C@@H](NC(=O)CC1CCCCC1)C(C)(C)C)C(=O)C(=O)NCc1cc(-c2ccc(Cl)cc2)no1', 'Ki', '> 500 nM'),
  ('CCC[C@H](NC(=O)[C@@H]1C[C@]2(CC(c3ccc(OC)c(C)c3)=NO2)CN1C(=O)[C@@H](NC(=O)CC1CCCCC1)C(C)(C)C)C(=O)C(=O)NC1CC1', 'Ki', '< 100 nM'),
  ('CCC[C@H](NC(=O)[C@@H]1C[C@]2(CC(c3cccc(Cl)c3)=NO2)CN1C(=O)[C@@H](NC(=O)CC1CCCCC1)C(C)(C)C)C(=O)C(=O)NC(C)C', 'Ki', '100 to 500 nM');
